- method_summary: Nuclear factor erythroid 2-related factor 2/antioxidant responsive element (Nrf2/ARE) small molecule agonists: luciferase reporter gene qHTS assay in human keratinocytes (AID 1919969); further: nearly all actives have a fitted effect of over 35% in size
- condition_set: KeratinoSens HaCaT ARE-luciferase, luminescence, 24 h; series mostly up to 92.4 µM
Records with an inconclusive call do not appear. Active and inactive are the calls of the source. The call rests on the fitted dose curve.
Form entry, call: pick from active, inactive

Req: Give the logged outcome of this assay for the following compound: CC1(C)O[C@@H]2[C@@H](CO[C@@]3(COS(N)(=O)=O)OC(C)(C)O[C@@H]23)O1
Resp: inactive

Req: Give the logged outcome of this assay for the following compound: OC[C@H]1O[C@H](O[C@]2(CCl)O[C@H](CCl)[C@@H](O)[C@@H]2O)[C@H](O)[C@@H](O)[C@H]1Cl
Resp: inactive

Req: Give the logged outcome of this assay for the following compound: CC(C)=CCC/C(C)=C/C=O
Resp: inactive

Req: Give the logged outcome of this assay for the following compound: CCCCCCCCCCCCCC[N+](C)(C)C
Resp: inactive

Req: Give the logged outcome of this assay for the following compound: COC(=O)CCC(=O)OC
Resp: inactive

Req: Give the logged outcome of this assay for the following compound: CCC(C)(O)CCCC(C)C (configuration not stated)
Resp: inactive

Req: Give the logged outcome of this assay for the following compound: CC(=O)Oc1ccc(C)cc1
Resp: inactive

Req: Give the logged outcome of this assay for the following compound: CNC[C@H](O)c1ccc(O)c(O)c1
Resp: inactive

Req: Give the logged outcome of this assay for the following compound: CC1=CC(C)(C)Nc2ccccc21
Resp: inactive

Req: Give the logged outcome of this assay for the following compound: CCCCCCCCCC(=O)OC
Resp: inactive

Req: Give the logged outcome of this assay for the following compound: OC(Cn1cncn1)(Cn1cncn1)c1ccc(F)cc1F
Resp: inactive

Req: Give the logged outcome of this assay for the following compound: CC(=O)OC(C)C
Resp: inactive

Req: Give the logged outcome of this assay for the following compound: O=C(O)/C=C\C(=O)O
Resp: inactive

Req: Give the logged outcome of this assay for the following compound: CC(=O)C1=C(C)[C@@H]2C[C@@]3(C1)[C@H](C)CC[C@H]3C2(C)C
Resp: inactive

Req: Give the logged outcome of this assay for the following compound: CCc1cccc2c3c([nH]c12)C(CC)(CC(=O)O)OCC3 (configuration not stated)
Resp: inactive

Req: Give the logged outcome of this assay for the following compound: CC(C)OP(=O)(CP(=O)(OC(C)C)OC(C)C)OC(C)C
Resp: inactive

Req: Give the logged outcome of this assay for the following compound: C=Cc1ccc(C)cc1
Resp: inactive

Req: Give the logged outcome of this assay for the following compound: CN(C)C
Resp: inactive

Req: Give the logged outcome of this assay for the following compound: Cc1ccc(C)c(S(=O)(=O)O)c1
Resp: inactive

Req: Give the logged outcome of this assay for the following compound: O=[N+]([O-])C(CO)(CO)CO
Resp: inactive

Req: Give the logged outcome of this assay for the following compound: CCCCCCCC=O
Resp: inactive

Req: Give the logged outcome of this assay for the following compound: CCCCCCCCCCCCCO
Resp: inactive

Req: Give the logged outcome of this assay for the following compound: C=C(C)C(=O)OCC(CC)(COC(=O)C(=C)C)COC(=O)C(=C)C
Resp: inactive

Req: Give the logged outcome of this assay for the following compound: NCCCCCCN
Resp: inactive

Req: Give the logged outcome of this assay for the following compound: C#CC1(O)CC[C@H]2[C@@H]3CCC4=CCCC[C@@H]4[C@H]3CC[C@@]21C (some centres not stated)
Resp: inactive

Req: Give the logged outcome of this assay for the following compound: CCOC(=O)C(C#N)=C(c1ccccc1)c1ccccc1
Resp: inactive

Req: Give the logged outcome of this assay for the following compound: CCn1cc(C(=O)O)c(=O)c2ccc(C)nc21
Resp: inactive

Req: Give the logged outcome of this assay for the following compound: CN(C)c1ccc(C(=C2C=CC(=[N+](C)C)C=C2)c2ccccc2)cc1
Resp: active

Req: Give the logged outcome of this assay for the following compound: CCCCCCCC/C=C\CCCCCCCC(=O)O
Resp: inactive

Req: Give the logged outcome of this assay for the following compound: CCN1CCCC1=O
Resp: inactive

Req: Give the logged outcome of this assay for the following compound: CCCCNC(=O)NS(=O)(=O)c1ccc(C)cc1
Resp: inactive

Req: Give the logged outcome of this assay for the following compound: COC(=O)c1ccc(C=O)cc1
Resp: inactive

Req: Give the logged outcome of this assay for the following compound: CC(C)=CCO
Resp: inactive

Req: Give the logged outcome of this assay for the following compound: NC(=NCCCCCCN=C(N)/N=C(\N)Nc1ccc(Cl)cc1)/N=C(\N)Nc1ccc(Cl)cc1
Resp: inactive

Req: Give the logged outcome of this assay for the following compound: CC(CCl)OP(=O)(OC(C)CCl)OC(C)CCl (configuration not stated)
Resp: inactive

Req: Give the logged outcome of this assay for the following compound: CC(=O)NS(=O)(=O)c1ccc(N)cc1
Resp: inactive

Req: Give the logged outcome of this assay for the following compound: O=C(Cl)c1cccc(C(=O)Cl)c1
Resp: inactive

Req: Give the logged outcome of this assay for the following compound: O=S(=O)(O)c1ccc2cc(O)ccc2c1
Resp: inactive

Req: Give the logged outcome of this assay for the following compound: N[C@@H](Cc1cc(I)c(Oc2ccc(O)c(I)c2)c(I)c1)C(=O)O
Resp: inactive

Req: Give the logged outcome of this assay for the following compound: Nc1ccc(O)c(C(=O)O)c1
Resp: inactive

Req: Give the logged outcome of this assay for the following compound: Nc1nc(=S)c2[nH]cnc2[nH]1
Resp: inactive

Req: Give the logged outcome of this assay for the following compound: O=C1CCC(N2C(=O)c3ccccc3C2=O)C(=O)N1 (configuration not stated)
Resp: inactive

Req: Give the logged outcome of this assay for the following compound: NC(=O)c1cnccn1
Resp: inactive

Req: Give the logged outcome of this assay for the following compound: CC(O)CO (configuration not stated)
Resp: inactive

Req: Give the logged outcome of this assay for the following compound: NCCN
Resp: inactive

Req: Give the logged outcome of this assay for the following compound: CC(=O)OCc1ccc2c(c1)OCO2
Resp: inactive

Req: Give the logged outcome of this assay for the following compound: CCC(C)(C)C(=O)O[C@H]1C[C@@H](C)C=C2C=C[C@H](C)[C@H](CC[C@@H]3C[C@@H](O)CC(=O)O3)[C@H]21
Resp: inactive

Req: Give the logged outcome of this assay for the following compound: CCCCCCCCCCCCCC(=O)O
Resp: inactive

Req: Give the logged outcome of this assay for the following compound: CS(=O)(=O)OCCCCOS(C)(=O)=O
Resp: inactive

Req: Give the logged outcome of this assay for the following compound: c1cnc2c(c1)ccc1cccnc12
Resp: active

Req: Give the logged outcome of this assay for the following compound: CC(=O)/C=C/C1=C(C)CCCC1(C)C
Resp: inactive

Req: Give the logged outcome of this assay for the following compound: CCC(=O)O
Resp: inactive

Req: Give the logged outcome of this assay for the following compound: CC(=O)[C@H]1CC[C@H]2[C@@H]3CC=C4C[C@@H](O)CC[C@]4(C)[C@H]3CC[C@]12C
Resp: inactive

Req: Give the logged outcome of this assay for the following compound: CCCOC(=O)c1ccccc1
Resp: inactive

Req: Give the logged outcome of this assay for the following compound: Cc1ccccc1Cl
Resp: inactive

Req: Give the logged outcome of this assay for the following compound: C[C@]12CC[C@@H]3c4ccc(O)cc4CC[C@H]3[C@@H]1CC[C@@H]2O
Resp: inactive

Req: Give the logged outcome of this assay for the following compound: CCCCCCCCCCCO
Resp: inactive
